From: patent US20230257351A1

Target: human P2X4 (Homo sapiens, UniProt Q99571)
Construct: expressed in transfected cells
Sequence (Q99571 1-388): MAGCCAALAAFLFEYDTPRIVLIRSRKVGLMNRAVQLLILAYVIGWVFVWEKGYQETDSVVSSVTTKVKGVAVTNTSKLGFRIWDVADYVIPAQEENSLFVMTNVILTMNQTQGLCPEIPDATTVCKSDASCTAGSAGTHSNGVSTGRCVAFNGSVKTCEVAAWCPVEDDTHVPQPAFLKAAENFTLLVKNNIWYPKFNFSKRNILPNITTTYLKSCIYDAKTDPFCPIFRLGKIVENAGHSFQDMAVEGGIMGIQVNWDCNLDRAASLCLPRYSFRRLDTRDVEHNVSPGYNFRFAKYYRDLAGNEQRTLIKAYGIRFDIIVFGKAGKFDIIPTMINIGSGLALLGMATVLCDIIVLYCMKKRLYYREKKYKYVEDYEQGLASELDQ
Assay: Human P2X4 HEK Cell FLIPR Assay
Assay type: cell-based
Conditions: HEK293 stably expressing human P2X4; agonist Bz-ATP 3 μM (EC80)
Protocol: Compounds were tested on a HEK293 cell line stably expressing human P2X4. Cells were cultured on poly-D-lysine-coated 384-well plates at a density of 15,000 cells/well and incubated overnight at 37° C., 5% CO2. P2X4 function was assessed by measuring intracellular calcium fluxes caused by Benzoylbenzoyl-ATP (Bz-ATP) using the calcium-chelating dye Fluo8-AM (Molecular Devices) with the Fluorescent Imaging Plate Reader Tetra (FLIPR^Tetra; Molecular Devices CA). […]
compounds and their reported Human P2X4 HEK Cells (FLIPR Assay) avg Efficacy
Write the value in % as a bare number.

Recorded Human P2X4 HEK Cells (FLIPR Assay) avg Efficacy, per entry:
{"COMPOUND_STRING": "CC(=O)N(c1cc(NC(=O)Cc2c(Cl)cccc2Cl)ccn1)c1ccc(F)cc1F", "STUDY_TARGET": "human P2X4 (Homo sapiens, UniProt Q99571)", "QUANTITATIVE_RESULT": 104}
{"COMPOUND_STRING": "CC(=O)N(c1ccc(F)c(F)c1)c1cc(NC(=O)Cc2ccccc2Cl)cnn1", "STUDY_TARGET": "human P2X4 (Homo sapiens, UniProt Q99571)", "QUANTITATIVE_RESULT": 86}
{"COMPOUND_STRING": "CC(=O)N(c1ccc(Cl)c(C#N)c1)c1cc(NC(=O)Cc2ccc(F)cc2Cl)ccn1", "STUDY_TARGET": "human P2X4 (Homo sapiens, UniProt Q99571)", "QUANTITATIVE_RESULT": 99}
{"COMPOUND_STRING": "CC(=O)N(c1ccc(C)cc1)c1cc(NC(=O)Cc2c(Cl)cccc2Cl)ccn1", "STUDY_TARGET": "human P2X4 (Homo sapiens, UniProt Q99571)", "QUANTITATIVE_RESULT": 103}
{"COMPOUND_STRING": "COc1c(F)cc(N(C(C)=O)c2cc(NC(=O)Cc3ccccc3Cl)ccn2)cc1F", "STUDY_TARGET": "human P2X4 (Homo sapiens, UniProt Q99571)", "QUANTITATIVE_RESULT": 89}
{"COMPOUND_STRING": "CC(=O)N(c1ccc(F)c(Cl)c1)c1cc(NC(=O)Cc2ccccc2Cl)ccn1", "STUDY_TARGET": "human P2X4 (Homo sapiens, UniProt Q99571)", "QUANTITATIVE_RESULT": 95}
{"COMPOUND_STRING": "CC(=O)N(c1ccc(F)c(F)c1)c1cc(NC(=O)Cc2c(Cl)cc(F)cc2Cl)ccn1", "STUDY_TARGET": "human P2X4 (Homo sapiens, UniProt Q99571)", "QUANTITATIVE_RESULT": 97}
{"COMPOUND_STRING": "CC(=O)N(c1cc(F)c(C)c(F)c1)c1cc(NC(=O)Cc2cccc(F)c2Cl)ccn1", "STUDY_TARGET": "human P2X4 (Homo sapiens, UniProt Q99571)", "QUANTITATIVE_RESULT": 97}

What Human P2X4 HEK Cells (FLIPR Assay) avg Efficacy value was documented for this compound, CC(=O)N(c1cc(NC(=O)Cc2c(Cl)cccc2Cl)ccn1)c1ccc(C)cc1C ?
104

Next record, please: CC(=O)N(c1cc(F)cc(C#N)c1)c1cc(NC(=O)Cc2ccccc2Cl)ccn1
98

Next record, please: CC(=O)N(c1ccc(F)c(C#N)c1)c1cc(NC(=O)Cc2ccc(F)cc2Cl)ccn1
98

Next record, please: CC(=O)N(c1cc(NC(=O)Cc2cccc(F)c2Cl)ccn1)c1ccc(F)cc1Cl
101

Next record, please: CC(=O)N(c1ccc(OC(F)F)cc1)c1cc(NC(=O)Cc2c(Cl)cccc2Cl)ccn1
100

Next record, please: CC(=O)N(c1cc(C)cc(C#N)c1)c1cc(NC(=O)Cc2c(F)cccc2Cl)ccn1
98
